Tested on: HCT-116 colon
Assay: NCI tumour cell line growth inhibition, 48 h; in the data active means GI50 below about 0.43 µM; inactive means the rest
Labels: Yes (active), No (inactive)

- COMPOUND: "C=C1C(=O)O[C@H]2[C@H]1CC/C(COC(=O)c1cc3cc(OC)ccc3[nH]1)=C\\CC[C@@]1(C)O[C@@H]21"
  ANSWER LABEL: "Yes"
- COMPOUND: "CNC(=O)c1cc(Oc2ccc(NC(=O)Nc3ccc(Cl)c(OC(F)(F)F)c3)c(F)c2)ccn1"
  ANSWER LABEL: "No"
- COMPOUND: "c1cc[c]([Sn]([S]c2cccc3cccnc23)([c]2ccccc2)[c]2ccccc2)cc1"
  ANSWER LABEL: "Yes"
- COMPOUND: "COc1ccc2c(c1)C=CC(C#N)N2C(=O)c1ccccc1 (stereo not given)"
  ANSWER LABEL: "Yes"
- COMPOUND: "CCN(CCO)CCNc1ccc(C)c2sc3cc(Cl)ccc3c(=O)c12"
  ANSWER LABEL: "No"

Where do the numbers come from? From PubChem BioAssay (NCI).
